ASSAY PROTOCOL: yeast display, Sf9 membrane polyspecificity reagent, FACS + sequencing; frameworks hold sequencing errors
PROPERTY MEASURED: polyreactivity (PSR sort gate)

Below are worked cases with known answers.
QVQLVESGGGLVQAGGSLRLSCAASGSTFENYVRGWYRQAPGKERELFAAISRGGGSTHYADSVKGRFTISRDNAKITVYLQKKSLKPEDTAVYYCAARYQTYVGSSSISTGIYYYWGQGTQVTVSS
low polyreactivity
QVQLVESGGGLVQAGGSLRLSCAASGRTFGRYAMGWYRQAPGKERELVATISSRGGNTYYADSVKGRFTISRDNAKNTVYLQMNSLKPEDTAVYYCAAQTYKWYDWGQGTQVTVSS
high polyreactivity
QVQLVESGGGLVQAGGSLRLSCAASGRTFARYAMGWYRQAPGKERDLVADITSGGSTNYADSVKGRFTISRDNAKNTVYLQMNSLEPEDTAVYYCAAYVVWSWFEEYEYWGQGTQVTVSS
high polyreactivity
QVQLVESVGGLVQAGGSLRLSCAASGSIFQPYAMGWYRHAPGKEREFVAAISRSGGITYYADSVKGRFTISRDNAKNTVYLQMNSLKPEDTAVYYCATGRQVVRSYSEGDYCGQGTQVTVSS
low polyreactivity

Consider the additional sequence presented here.
Recorded polyreactivity (PSR sort gate) of QVQLVESGGGLVQAGGSLRLSCAASGRIFDWYVMGWYRQAPGKERELVAAINSGVSTKYADSVKGRFTISRDNAKNTVYLQMNSLKPEDTAVYYCAAQSFSDYRRTGRKSSYYYWGQGTQVTVSS , please.
low polyreactivity
